- Organism: Rattus norvegicus
- experimentSummary: Open TG-GATES - Regimen: Daily Repeat
- Format: toxicity, organism-based, Sprague-Dawley
- Set-up: regimen Daily Repeat, gender Male, age 6 weeks
- experimentalParameters: in vivo, po, 100 mg/kg, […], tissue Blood, route gavage, dose level Low, time 28 day
Kindly state Lym for each of the entries shown.
Give bare numbers, in %.

Before answering, review these 3 worked examples.
CNC(=C[N+](=O)[O-])NCCSCc1ccc(CN(C)C)o1 [RANITIDINE]	82.6
Cc1nnc2n1-c1ccc(Cl)cc1C(c1ccccc1Cl)=NC2 [TRIAZOLAM]	78.4
O=C(OC[C@H]1O[C@@H](OC(=O)c2cc(O)c(O)c(OC(=O)c3cc(O)c(O)c(O)c3)c2)[C@H](OC(=O)c2cc(O)c(O)c(OC(=O)c3cc(O)c(O)c(O)c3)c2)[C@@H](OC(=O)c2cc(O)c(O)c(OC(=O)c3cc(O)c(O)c(O)c3)c2)[C@@H]1OC(=O)c1cc(O)c(O)c(OC(=O)c2cc(O)c(O)c(O)c2)c1)c1cc(O)c(O)c(OC(=O)c2cc(O)c(O)c(O)c2)c1 [TANNIC ACID]	80.4

Value sought for every listed molecule: Lym.
1. COC(=O)C1=C(C)NC(C)=C(C(=O)OC)C1c1ccccc1[N+](=O)[O-] [NIFEDIPINE]
2. CN/C(=N/CCSCc1nc[nH]c1C)NC#N [CIMETIDINE]

[71.4, 79.4]

* * *

- Species: Rattus norvegicus
- experimentSummary: Open TG-GATES - Regimen: Single
- Format: toxicity, organism-based, Sprague-Dawley
- Set-up: regimen Single, gender Male, age 6 weeks
- experimentalParameters: in vivo, po, 300 mg/kg, 24 h, tissue Plasma, route gavage, dose level Middle
metricName: GLC (mg/dL)
One number for each entry, in mg/dL.

CNC(=C[N+](=O)[O-])NCCSCc1ccc(CN(C)C)o1 [RANITIDINE]	196.6
O=C(OC[C@H]1O[C@@H](OC(=O)c2cc(O)c(O)c(OC(=O)c3cc(O)c(O)c(O)c3)c2)[C@H](OC(=O)c2cc(O)c(O)c(OC(=O)c3cc(O)c(O)c(O)c3)c2)[C@@H](OC(=O)c2cc(O)c(O)c(OC(=O)c3cc(O)c(O)c(O)c3)c2)[C@@H]1OC(=O)c1cc(O)c(O)c(OC(=O)c2cc(O)c(O)c(O)c2)c1)c1cc(O)c(O)c(OC(=O)c2cc(O)c(O)c(O)c2)c1 [TANNIC ACID]	193.8
Cc1nnc2n1-c1ccc(Cl)cc1C(c1ccccc1Cl)=NC2 [TRIAZOLAM]	180.2
COC(=O)C1=C(C)NC(C)=C(C(=O)OC)C1c1ccccc1[N+](=O)[O-] [NIFEDIPINE]	160.4

# input for lookup
Requested field: GLC. Item: CN/C(=N/CCSCc1nc[nH]c1C)NC#N [CIMETIDINE]
200.8

* * *

- Species on record: Rattus norvegicus
- experimentSummary: Open TG-GATES - Regimen: Single
- Format: toxicity, organism-based, Sprague-Dawley
- Set-up: regimen Single, gender Male, age 6 weeks
- experimentalParameters: in vivo, po, 1000 mg/kg, 9 h, tissue Plasma, route gavage, dose level High
Kindly state TC for each of the entries shown.
Answers are plain numbers, in mg/dL.

Before answering, review these 4 worked examples.
CN/C(=N/CCSCc1nc[nH]c1C)NC#N	77.2
COC(=O)C1=C(C)NC(C)=C(C(=O)OC)C1c1ccccc1[N+](=O)[O-]	90.8
O=C(OC[C@H]1O[C@@H](OC(=O)c2cc(O)c(O)c(OC(=O)c3cc(O)c(O)c(O)c3)c2)[C@H](OC(=O)c2cc(O)c(O)c(OC(=O)c3cc(O)c(O)c(O)c3)c2)[C@@H](OC(=O)c2cc(O)c(O)c(OC(=O)c3cc(O)c(O)c(O)c3)c2)[C@@H]1OC(=O)c1cc(O)c(O)c(OC(=O)c2cc(O)c(O)c(O)c2)c1)c1cc(O)c(O)c(OC(=O)c2cc(O)c(O)c(O)c2)c1	61.6
Cc1nnc2n1-c1ccc(Cl)cc1C(c1ccccc1Cl)=NC2	76.4

# input for lookup
Requested field: TC. Item: CNC(=C[N+](=O)[O-])NCCSCc1ccc(CN(C)C)o1
84.6
